Target: UniProtKB P25106
Sequence (P25106 whole entry): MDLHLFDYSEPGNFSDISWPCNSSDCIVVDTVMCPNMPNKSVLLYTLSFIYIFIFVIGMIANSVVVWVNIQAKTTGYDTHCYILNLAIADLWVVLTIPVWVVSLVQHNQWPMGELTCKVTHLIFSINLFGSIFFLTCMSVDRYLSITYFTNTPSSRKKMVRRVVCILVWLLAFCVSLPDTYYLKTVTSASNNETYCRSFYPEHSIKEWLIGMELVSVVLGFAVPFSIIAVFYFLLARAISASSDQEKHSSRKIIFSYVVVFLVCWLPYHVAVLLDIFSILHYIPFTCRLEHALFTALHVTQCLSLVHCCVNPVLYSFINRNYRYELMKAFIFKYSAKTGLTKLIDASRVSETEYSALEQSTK
Format: cell-based
Set-up: expressed in transfected cells
Conditions: 100 nM, replicate 1
test.readout: ACKR3 activity, Fig 4a

structure.string	ACKR3 activity, Fig 4a
Oc1ccc2c3c1O[C@H]1c4[nH]c5c(c4C[C@@]4(O)[C@@H](C2)N(CC2CC2)CC[C@]314)C[C@@]1(O)[C@H]2Cc3ccc(O)c4c3[C@@]1(CCN2CC1CC1)[C@H]5O4	6.23
Oc1ccc2c3c1O[C@H]1c4[nH]c5ccccc5c4C[C@@]4(O)[C@@H](C2)N(CC2CC2)CC[C@]314	7.799
C=CCN1CC[C@]23c4c5ccc(O)c4O[C@H]2C(=O)CC[C@@]3(O)[C@H]1C5	-16.5596

With those in mind, consider the next compound.
Would you kindly share the measured ACKR3 activity, Fig 4a for C=CCN1CC[C@]23CCCC[C@H]2[C@H]1Cc1ccc(O)cc13 ?
29.7947
